EXPERIMENT: in vivo
Design: species or system male Sprague-Dawley rats
RUN_CONDITIONS: rat, MCM8 (INVENTION), 5 mg/0.5 ml/animal, 15 minutes after, read-out: Remaining ratio of the active ingredient in small intestine
RECORDED_METRIC: remaining at 0.25 h (%)
Provide the reading as a plain figure in %.

Can you share its remaining at 0.25 h? I mean this compound: N=C(N)c1ccc2cc(OC(=O)c3ccc(N=C(N)N)cc3)ccc2c1 [Compound B, dimethanesulfonate]
70.5

###

EXPERIMENT: in vivo
Parameters: species or system male Beagle dogs
RUN_CONDITIONS: dog, plasma, po, Reference Example 1 (soft capsule of Example 1 suspension), read-out: BA
RECORDED_METRIC: bioavailability (%)
Provide the reading as a plain figure in %.

Can you share its bioavailability? I mean this molecule: CN(C)C(=O)COC(=O)Cc1ccc(OC(=O)c2ccc(NC(=N)N)cc2)cc1.CS(=O)(=O)O
10.9

###

EXPERIMENT: in vivo
Design: species or system male Beagle dogs
RUN_CONDITIONS: dog, plasma, po, Reference Example 6 (enteric-coated soft capsule, as Reference Example 3), read-out: BA
RECORDED_METRIC: bioavailability

Can you share its bioavailability? I mean this compound: CS(=O)(=O)O.CS(=O)(=O)O.N=C(N)Nc1ccc(C(=O)Oc2ccc3cc(C(=N)N)ccc3c2)cc1
5.1%

Data origin, for the record: patent US5004612A
